Values from the nanobody polyreactivity screen of Harvey et al. (2022)

assay_info: yeast display, Sf9 membrane polyspecificity reagent, FACS + sequencing; frameworks hold sequencing errors

- sequence_record: "QVQLVESGGGLVQAGGSLRLSCAASGSISTYNDSGWYRQAPGKEREFVASITLSTGRTDYADSVKGRFTISRDNAKNTVYLQMNSLKPEETAVYVCSVRDYARKYLTSFDYWGQGTQVTVSS"
  polyreactivity (PSR sort gate): "high polyreactivity"
- sequence_record: "QVQLVESGGGLVQAGGSLRLSCAASGSIFGTYAMGWYRQAPGKERELVAAITTSAGSTYYADSVKGRFTISRDNAKNTVYLEMNSLKPEDTAVYYCAKYAYTSVHSWYYYWGQGTQVTVSS"
  polyreactivity (PSR sort gate): "high polyreactivity"
- sequence_record: "QVQLVESGGGLVQAGGSLRLSCAASGFIFADYMGWYRQAPGKERELDASISSTGSSTYADSVKGRFTISRDNAKNTVYLQMNSLKPEDTAVYYCAATGVWYSWYEYASEYDYWGQGTQVTVSS"
  polyreactivity (PSR sort gate): "high polyreactivity"

###

assay_info: yeast display, Sf9 membrane polyspecificity reagent, FACS + sequencing; frameworks hold sequencing errors
metric: polyreactivity (PSR sort gate)

Check out these entries, answers already filled in.
- sequence_record: "QVQLVESGGGLVQAGGSLRLSCAASGNTFGTYVMGWYRPAPGKERELVAAISQSGGSTDYADSVKGRFTISRDNAKYTVYLQMNSLKPEETAVYYCAKVTWGTVWYRSPSEYDYWGQGTQVTVSS"
  polyreactivity (PSR sort gate): "low polyreactivity"
- sequence_record: "QVQLVESGGGLVQAGGSLRLSCAASGRTFSYYAMGWYRQAPGKERELVAAISSGGSTYYADSVKGRFTISRDNAKNTVYLQMNSLKTEVSEVYYCAKSYYRYQVSSRMYYRGQGTQVTVSS"
  polyreactivity (PSR sort gate): "high polyreactivity"
- sequence_record: "QVQLVESGGGLVQAGGRLRLSCAASARIFYSKVMGWYRQAPGKERELVAAISGRTGGTYYADSVKGRFTISRDNAKNTVYLQMNSLKPEDTAVYYCAARVIDYYGSGPYDYWGQGTQVTVSS"
  polyreactivity (PSR sort gate): "low polyreactivity"
- sequence_record: "QVQLVESGGGLVQAGGSLRLSCAASGFTFGRYALGWYRQPPGKERELVAVISWSGVSTYYADSVKGRFTISRDNAKNTVYLQMNSLKPEDTAVYYCNKRSYHYPYGYDYWGQGTQVTVSS"
  polyreactivity (PSR sort gate): "high polyreactivity"

// below: polyreactivity (PSR sort gate) requested for another sequence
# input sequence: QVQLVESGGGLVQAGGSLRLSCPASGSIFYYYAMGWYRQEPGKERELVATITWNGAGTFYADSVKGRFTISRDNAKNTVYLQMNSLKPEDTAVYYCAASWYGESGYDYWGQGSQVTVSS ; wanted: its polyreactivity (PSR sort gate)
low polyreactivity

###

assay_info: yeast display, Sf9 membrane polyspecificity reagent, FACS + sequencing; frameworks hold sequencing errors
metric: polyreactivity (PSR sort gate)

Check out these entries, answers already filled in.
- sequence_record: "QVQLVESGGGLVQAGGRLRLSCAASGRTFSKYPLGWYRQAPGKERELVAAITSGGGTYYADSVKGRFTFSRDNAKNPVYLQMHSRKPEDTAVYYCAVSGTTVSTYDYWGQCTQVTVSS"
  metric: "polyreactivity (PSR sort gate)"
  recorded_measurement: "low polyreactivity"
- sequence_record: "QVQLVESGGGLVQAGGSLRLSCAASGRIFTLYAMGWYRQAPGKERELVAAISYGGGGTYYADSVKGRFTISRDNAKNTVYLQMNRLKPEDSAVYFCATDDPLSQINEQGMDYWGQGTQVTVSS"
  metric: "polyreactivity (PSR sort gate)"
  recorded_measurement: "low polyreactivity"
- sequence_record: "QVQLVESGGGLVQAGGSLRLSCAASGFTFRNNAMGWYRQAPGKERELVAAISKRGSSTYYADSVKGRFTISRDNAKNTVYLQMNSLKPEDTAVYYCAASWLGASGIRYDYWGQGTQVTVSS"
  metric: "polyreactivity (PSR sort gate)"
  recorded_measurement: "high polyreactivity"
- sequence_record: "QVQLVESGGGLVQAGGSLRLSCAASGSTFAPYAMGWYRQAPGKERELVAAITWRGGSTYYADSVKGRFTISRDNAKYTVYLQMNSLKPEDTAVYYCNADGYVPDYEYWGQGTQVTVSS"
  metric: "polyreactivity (PSR sort gate)"
  recorded_measurement: "high polyreactivity"
- sequence_record: "QVQLVESGGGLVQAGGSLRLSCAASGLTFEYYDMGWYRQAPGKERELVAAITGSDDSTYADSVKGRFTISRDNAKNTVYLQMNSLKPEDTAVYYCAASYRAWSGNYWGQGTQVTVSS"
  metric: "polyreactivity (PSR sort gate)"
  recorded_measurement: "high polyreactivity"

# input sequence: QVQLVESGGGLVQAGGSLRLSCAASGIIFAKYAMGWYRQPPGKERELVASISRPGGSTYYADSVKGRFTISRDNAKNTVYLQMNSLKPEDTAVYDCNAPGLRDYDAEYDYWGQGTQVTVSS ; wanted: its polyreactivity (PSR sort gate)
high polyreactivity

Next: QVHLVESGGGLVQAGGSLRLSCAASGRTIDRNTMGWYRQAPVKERELVATITWSVGRTYYADSVKGRFTISRDNGKITVYVQMISMKPEDTGVYFCAAGIYAYKYESWGHGTQVTVSS
high polyreactivity

Next: QVQLVESGGGLVQAGGSLRLSCAASGSTFGRYVMGWYRQAPGKERELVAAISYSGGRTYYADSVKGRFTISRDNAKNTVYLQMNSLKPEDTAVYYCNKGGIREYDYWGQGTQVTVSS
high polyreactivity

###

assay_info: yeast display, Sf9 membrane polyspecificity reagent, FACS + sequencing; frameworks hold sequencing errors
metric: polyreactivity (PSR sort gate)

Check out these entries, answers already filled in.
- sequence_record: "QVQLGESGGGLVQAGGSLRLSCAASGRTFGLYAMGWYRQAPGKERELVAAISRGTSTNYADSVKGRFTISRDNAKNTVYLEMYSLKPEDTAVYYCNARRKFVGKWGDYWGQGTQVTVSS"
  recorded_measurement: "low polyreactivity"
- sequence_record: "QVQLVESGGVLVQAGGSLPLSCAASGRILARNAMGWYRQAPGNERELVAAITSSTDSTYYADSVKGRFTISRDNAKNTVYLQMNSLKPEDTAVYYCATVVRLYRGRYSYDYWGQGTQVTVSS"
  recorded_measurement: "high polyreactivity"
- sequence_record: "QVQLVESGGGLVQAGGSLRLSCAGSGRIFTQYAMGWYGQAPGKERELVAAINASDGSTYADSVKGRFTISRDNAKNTVYLQMNSLKPEDTAVYYCNVTGGPYDFTRWSEFDHWGQGTQVTVSS"
  recorded_measurement: "low polyreactivity"
- sequence_record: "QVQLVESGGGLVQAGGSLRLSCAASGRTFGYNAMGWYRQAPGKERELVAAITYSGGRTSYADSVKGRFTISRDNAKNTVYLQMNSLKPEDTAFYYCAAQPRYYSGYNYWGQGTQVTVSS"
  recorded_measurement: "high polyreactivity"
- sequence_record: "QVQLVESGGGLVQAGGSLRLSSAASGRIFVAYAMGWYRQAPAKERELVAAITWSGTSTYADSVKGRFTISRDNAKNTVYLQMNSLKPEDTAVYYCAKKAIVSDQWDKYDYWGQGTQVTVSS"
  recorded_measurement: "low polyreactivity"
- sequence_record: "QVQLVESGGGLVQAGGSLRLNCAASGSIFDDYAMGWYRQAPGKERELVAAINIRTGSTYYADSVKGRFTISRDNAKNTVYLQMNSLKPEDTAVYYCNRVVRGFVRHLDYWGQGTQVTVSS"
  recorded_measurement: "low polyreactivity"

# input sequence: QVQLVESGGGLVQAGGSLRLSCAASGLTFEKYAMGWYRQAPGKERELVAAISQDGGSTYYADSVKGRFTISRDNAKNTVYLQMNSLKPEDTAVYYCAAEDPDSWLPWHLYDYWGQGTQVTVSS ; wanted: its polyreactivity (PSR sort gate)
low polyreactivity

Next: QVQLVDSVGGLVQAGGSLRLSCAASGLTFLGNAMGWYRQATGKEREFVAGIDRSSVSTYADSVKGRFTISRDNAKNTVYLQMNSLKPEDTEVYYCAVVEYGIWVGWVPYATFGMNYWGQGTQVTVSS
high polyreactivity

Next: QVQLVESVGGLVQAGGSLRLSCAASGRIFGFSTMGWYRQARGKDRELVATISWSGSGTYYADSVKGRFTISRDNAYNTVYLQMNRLKPEDTAVYYCNADWYYFGYDYWGQGTQVTVST
low polyreactivity

Next: QVQLGESGGGFVQAGGSLRLSCAASGSTFSYNAMGWYIQASGKESEFVAAISSSGGRTYYADSVKWRFTISRDYEKNTVYLQMKSLKPEDTAVYYCPAKSRLPTQGLGMYYWGKGTQVTVSS
high polyreactivity

Next: QVQLVESGGGLLQAGGSLRLSCAASGLTFAFYVMGWYRQAPGKERELVAAISASGASTYYADSVKGRFTISRDNAKNTVYLQMNSLKPEDTAVYYCAADYAVYSFTEFNYWGQGTQVTVSS
high polyreactivity
